system.name: human NTCP (Homo sapiens, UniProt Q14973)
Sequence (Q14973 whole entry): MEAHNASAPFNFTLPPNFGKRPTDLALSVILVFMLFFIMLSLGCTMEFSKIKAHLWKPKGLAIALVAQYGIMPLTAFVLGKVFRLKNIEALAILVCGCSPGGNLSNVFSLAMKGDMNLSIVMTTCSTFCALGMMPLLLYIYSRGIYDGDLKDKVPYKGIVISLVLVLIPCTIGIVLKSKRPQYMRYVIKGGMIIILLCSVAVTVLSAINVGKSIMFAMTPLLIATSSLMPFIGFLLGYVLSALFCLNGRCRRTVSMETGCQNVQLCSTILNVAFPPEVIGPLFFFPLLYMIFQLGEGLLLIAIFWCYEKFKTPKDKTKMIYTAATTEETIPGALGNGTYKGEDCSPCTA
test.summary: Screening taurocholate uptake assay (96-well, [14C]taurocholate, 10 µM drug)
conditions.used: combined ranking from functional and binding assay B-scores
Non-standard residues stand in square brackets, D forms with d. Residues, ends and D or L forms follow the SMILES beside them. pGlu = O=C1CC[C@@H](C(=O)O)N1; Thz = O=C(O)[C@@H]1CSCN1
Ranking score for assorted molecules
A bare number is all that is needed in reply.

# annotated cases, reported Ranking score shown
- O=C1CC[C@@H](C(=O)N2CSC[C@H]2C(=O)O)N1 [Pidotimod] ([pGlu]-[Thz]-OH): 884.212
- Nc1ccc(C(=O)NCC(=O)O)cc1: 1073.5
- CCOC(=O)C(C)(C)Oc1ccc(Cl)cc1 [Clofibrate]: 1068.42
- CC[C@@H]1C(=O)OC[C@@H]1Cc1cncn1C [Pilocarpine nitrate]: 931.987

Reported Ranking score, molecule `CCOc1ccc(NC(C)=O)cc1` : ____
860.113
